So I've got a bunch of compounds here, and I need their binding (% of control) values.
# Test system: anti-desmoglein-3 scFv antibody binding to human DSG3
# protocol_notes: blockers of pathogenic pemphigus antibody–desmoglein-3 binding – biochemical, validation compound set, bead-based, flow cytometry, pilot screen (AID 588368);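 note: signal is the median channel fluorescence of bead-bound GFP antibody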
# measurement_parameters: Protein G beads, DSG3-Fc, scFv-GFP binding, at 10 µM, hits give low values
Supply the numeric figure in %, leaving out any unit text.

What binding (% of control) value was documented for this compound, CCN1C(=O)C(CC(=O)Nc2ccc(F)cc2)N(Cc2ccco2)C1=S (stereo not given) ?
99.9

What binding (% of control) value was documented for this compound, `Cc1nc(N)nc2c1CCCC2` ?
109

What binding (% of control) value was documented for this compound, `C#C[C@]1(O)CC[C@H]2[C@@H]3CCc4cc(O)ccc4[C@H]3CC[C@@]21C` ?
106

What binding (% of control) value was documented for this compound, `COCCCNc1nc2c([nH]1)c(=O)[nH]c(=O)n2C` ?
98.5

What binding (% of control) value was documented for this compound, `COc1cc(C)nc(-n2nc(C)cc2OC)n1` ?
95.9

What binding (% of control) value was documented for this compound, CNCCC(Oc1ccc(C(F)(F)F)cc1)c1ccccc1 (stereo not given) ?
94.1

What binding (% of control) value was documented for this compound, CC(C(=O)O)c1ccc(-c2ccccc2)c(F)c1 (stereo not given) ?
103

What binding (% of control) value was documented for this compound, `COc1ccccc1Oc1c(C)oc2c(CN3CCN(CCO)CC3)c(O)ccc2c1=O` ?
103

What binding (% of control) value was documented for this compound, `O=C(OCCNC(=O)c1ccc2ccccc2n1)c1ccc(F)cc1` ?
99.2

What binding (% of control) value was documented for this compound, `N#C/C(=C\c1ccc(O)c(O)c1)C(=O)NCCCc1ccccc1` ?
103

What binding (% of control) value was documented for this compound, `O=C1C(=O)N2C(=C1C(=O)N1CCCCCC1)c1ccccc1CC21CCCC1` ?
105

What binding (% of control) value was documented for this compound, C1CCC(C(CC2CCCCN2)C2CCCCC2)CC1 (stereo not given) ?
109

What binding (% of control) value was documented for this compound, CCOC(=O)C(NC(=O)CCC(=O)Nc1ccc(S(N)(=O)=O)cc1)C(O)c1ccccc1 (stereo not given) ?
101

What binding (% of control) value was documented for this compound, `COc1ccc(-c2csc(-c3cccnc3)n2)cc1C` ?
102

What binding (% of control) value was documented for this compound, `CN(C)CCCN1c2ccccc2Sc2ccc(C(F)(F)F)cc21` ?
101

What binding (% of control) value was documented for this compound, `Cc1cccc(Nc2ccccc2C(=O)O)c1C` ?
101

What binding (% of control) value was documented for this compound, `O=C(CCCN1C(=O)/C(=C\c2cccs2)SC1=S)Nc1ccccn1` ?
94

What binding (% of control) value was documented for this compound, O=C(COc1ccccc1)Nc1ccc2c(c1)C(=O)N(CC1CCCO1)C2=O (stereo not given) ?
100

What binding (% of control) value was documented for this compound, `O=Cc1ccc(OC(=O)c2cccnc2)cc1` ?
93

What binding (% of control) value was documented for this compound, O=C(c1ccco1)N(CCC(c1ccccc1)c1ccco1)Cc1ccco1 (stereo not given) ?
99.7

What binding (% of control) value was documented for this compound, COc1ccc(C(=O)Nc2ncc3c(n2)CC(C)CC3=O)cc1 (stereo not given) ?
95.3

What binding (% of control) value was documented for this compound, `Cc1cc(O)c(C(=O)Cc2csc(C)n2)c(O)c1` ?
99.5

What binding (% of control) value was documented for this compound, CCn1c(C)cc2c(c1=O)C(c1ccccc1)C(C(=O)OC)=C(N)O2 (stereo not given) ?
102

What binding (% of control) value was documented for this compound, COc1ccc(NC(=O)N2CCCCC2c2cccnc2)cc1 (stereo not given) ?
103

What binding (% of control) value was documented for this compound, `CCCC(=O)Nc1ccccc1NC(C)=O` ?
95.1
